- ASSAY_NAME: Solubility determination
- Format: physicochemical
- CONDITION_PARAMETERS: 22 °C, aqueous buffer, kinetic from dmso stock; solubility in DPBS, 100 μM test samples, LCMS; read-out: LCMS
Numbered stars: 1 amine (or outer) side, 2 acyl side, 3 side chain; on linkers, the order of the positions; unused ones are H or OH. Bridge positions count the residues as written; N and C are the ends. Square brackets hold non-standard residues; d marks the D form. Peptide text beside a SMILES is read from it. * marks the point of attachment. X5 = O=C([C@@H]1C[C@@H](OP(=O)(O)O)CN1[*:1])[*:2]; Piperazine(2S-CO,4-Me) = CN1CCN[C@H](C(=O)O)C1; Phe(3-Me) = Cc1cccc(C[C@H](N)C(=O)O)c1; NH(4-Cl-2-F-phenyl) = Fc1cc(Cl)ccc1N*; Pro(4R-Me) = C[C@H]1CN[C@H](C(=O)O)C1; Hyp = O=C(O)[C@@H]1C[C@@H](O)CN1; NH(4-Me-phenyl) = Cc1ccc(N*)cc1; aThr = C[C@H](O)[C@H](N)C(=O)O; Pip = O=C(O)[C@@H]1CCCCN1; CO = O=C([*:1])[*:2]
VALUE_KIND: solubility kinetic at 10 min (µM)
One number for each entry, in µM.

Cc1ccc(NC(=O)N[C@@H](Cc2cccc(C)c2)C(=O)N[C@@H]2C(=O)N3C[C@H](O)C[C@H]3C(=O)N3CCN(C)C[C@H]3C(=O)N[C@@H](C)C(=O)N3C[C@H](C)C[C@H]3C(=O)O[C@H]2C)cc1 [Compound 30] ({NH(4-Me-phenyl)-CO}-[Phe(3-Me)][aThr][Hyp][Piperazine(2S-CO,4-Me)]A[Pro(4R-Me)]; ester 2-C) :: 68.8

Give solubility kinetic at 10 min for each listed item.
1. Cc1ccc(NC(=O)N[C@@H](Cc2cccc(C)c2)C(=O)N[C@@H]2C(=O)N3CCC[C@H]3C(=O)N3CCCC[C@H]3C(=O)N[C@@H](C)C(=O)N3C[C@H](C)C[C@H]3C(=O)O[C@H]2C)cc1 [Compound 1] ({NH(4-Me-phenyl)-CO}-[Phe(3-Me)][aThr]P[Pip]A[Pro(4R-Me)]; ester 2-C)
2. Cc1cccc(C[C@H](NC(=O)Nc2ccc(Cl)cc2F)C(=O)N[C@@H]2C(=O)N3C[C@H](OP(=O)(O)O)C[C@H]3C(=O)N3CCCC[C@H]3C(=O)N[C@@H](C)C(=O)N3C[C@H](C)C[C@H]3C(=O)O[C@H]2C)c1 [Compound 29] ({NH(4-Cl-2-F-phenyl)-CO}-[Phe(3-Me)][aThr][X5][Pip]A[Pro(4R-Me)]; ester 2-C)

output:
[22.9, 66.6]

----------
- ASSAY_NAME: Plasma protein binding, rapid equilibrium dialysis
- Format: in vitro ADME, human
- CONDITION_PARAMETERS: human, 4 h, 10 μM, pH 7.4
Numbered stars: 1 amine (or outer) side, 2 acyl side, 3 side chain; on linkers, the order of the positions; unused ones are H or OH. Bridge positions count the residues as written; N and C are the ends. Square brackets hold non-standard residues; d marks the D form. Peptide text beside a SMILES is read from it. * marks the point of attachment. ξ: configuration not given here. Morpholine(3S-CO) = O=C(O)[C@@H]1COCCN1; Phe(3-Me) = Cc1cccc(C[C@H](N)C(=O)O)c1; NH(4-Cl-2-F-phenyl) = Fc1cc(Cl)ccc1N*; Pro(4R-Me) = C[C@H]1CN[C@H](C(=O)O)C1; Hyp = O=C(O)[C@@H]1C[C@@H](O)CN1; NH(4-Et-phenyl) = CCc1ccc(N*)cc1; ξNMeThr = CNC(C(=O)O)[C@@H](C)O; aThr = C[C@H](O)[C@H](N)C(=O)O; CO = O=C([*:1])[*:2]
Answer each item with its documented Human.
Numbers only, in %.

CCc1ccc(NC(=O)N[C@@H](Cc2cccc(C)c2)C(=O)N[C@@H]2C(=O)N3C[C@H](O)C[C@H]3C(=O)N3CCOC[C@H]3C(=O)N[C@@H](C)C(=O)N3C[C@H](C)C[C@H]3C(=O)O[C@H]2C)cc1 [Compound 24] ({NH(4-Et-phenyl)-CO}-[Phe(3-Me)][aThr][Hyp][Morpholine(3S-CO)]A[Pro(4R-Me)]; ester 2-C) :: 97.7

Give Human for each listed item.
1. Cc1cccc(C[C@H](NC(=O)Nc2ccc(Cl)cc2F)C(=O)N[C@@H]2C(=O)N3CCC[C@H]3C(=O)N(C)C([C@@H](C)O)C(=O)N[C@@H](C)C(=O)N3C[C@H](C)C[C@H]3C(=O)O[C@H]2C)c1 (stereo partly drawn) [Compound 5] ({NH(4-Cl-2-F-phenyl)-CO}-[Phe(3-Me)][aThr]P[ξNMeThr]A[Pro(4R-Me)]; ester 2-C)
2. Cc1cccc(C[C@H](NC(=O)Nc2ccc(Cl)cc2F)C(=O)N[C@H]2COC(=O)[C@@H]3C[C@@H](C)CN3C(=O)[C@H](C)NC(=O)[C@@H]3CCCCN3C(=O)[C@@H]3CCCN3C2=O)c1

output:
1: 98.0; 2: 98.2

----------
- ASSAY_NAME: Plasma stability assay
- Format: in vitro ADME, mouse
- CONDITION_PARAMETERS: mouse, 10 μM
Numbered stars: 1 amine (or outer) side, 2 acyl side, 3 side chain; on linkers, the order of the positions; unused ones are H or OH. Bridge positions count the residues as written; N and C are the ends. Square brackets hold non-standard residues; d marks the D form. Peptide text beside a SMILES is read from it. * marks the point of attachment. Piperazine(2S-CO,4-Me) = CN1CCN[C@H](C(=O)O)C1; Phe(3-Me) = Cc1cccc(C[C@H](N)C(=O)O)c1; X4 = O=C1CN([*:1])[C@H](C(=O)[*:2])CN1; NH(4-Cl-2-F-phenyl) = Fc1cc(Cl)ccc1N*; Pro(4R-Me) = C[C@H]1CN[C@H](C(=O)O)C1; Propanoyl(3-NMe2) = CN(C)CCC(=O)*; Hyp = O=C(O)[C@@H]1C[C@@H](O)CN1; aThr = C[C@H](O)[C@H](N)C(=O)O; Pip = O=C(O)[C@@H]1CCCCN1; CO = O=C([*:1])[*:2]
Answer each item with its documented Mouse.
One number for each entry, in h.

Solved cases below.
Cc1cccc(C[C@H](NC(=O)Nc2ccc3c(c2)OCCO3)C(=O)N[C@H]2COC(=O)[C@@H]3C[C@@H](C)CN3C(=O)[C@H](C)NC(=O)[C@@H]3CCCCN3C(=O)[C@@H]3CCCN3C2=O)c1 :: 46.15
Cc1cccc(C[C@H](NC(=O)Nc2ccc(Cl)cc2F)C(=O)N[C@@H]2C(=O)N3CCC[C@H]3C(=O)N3CCN(C)C[C@H]3C(=O)N[C@@H](C)C(=O)N3C[C@H](C)C[C@H]3C(=O)O[C@H]2C)c1 [Compound 11] ({NH(4-Cl-2-F-phenyl)-CO}-[Phe(3-Me)][aThr]P[Piperazine(2S-CO,4-Me)]A[Pro(4R-Me)]; ester 2-C) :: 36.62
Cc1cccc(C[C@H](NC(=O)Nc2ccc(Cl)cc2F)C(=O)N[C@@H]2C(=O)N3CCC[C@H]3C(=O)N3CC(=O)NC[C@H]3C(=O)N[C@@H](C)C(=O)N3C[C@H](C)C[C@H]3C(=O)O[C@H]2C)c1 [Compound 20] ({NH(4-Cl-2-F-phenyl)-CO}-[Phe(3-Me)][aThr]P[X4]A[Pro(4R-Me)]; ester 2-C) :: 13.2

Lab note: next compound to report on.
input: Endpoint output: Mouse of Cc1cccc(C[C@H](NC(=O)Nc2ccc(Cl)cc2F)C(=O)N[C@@H]2C(=O)N3C[C@H](OC(=O)CCN(C)C)C[C@H]3C(=O)N3CCCC[C@H]3C(=O)N[C@@H](C)C(=O)N3C[C@H](C)C[C@H]3C(=O)O[C@H]2C)c1 [Compound 46] ({NH(4-Cl-2-F-phenyl)-CO}-[Phe(3-Me)][aThr][Hyp](Propanoyl(3-NMe2))[Pip]A[Pro(4R-Me)]; ester 2-C) . Value?
output: 0.49

----------
Answer each item with its documented Human.
- ASSAY_NAME: Plasma stability assay
- Type: in vitro ADME, human
- CONDITION_PARAMETERS: human, 10 μM
Numbered stars: 1 amine (or outer) side, 2 acyl side, 3 side chain; on linkers, the order of the positions; unused ones are H or OH. Bridge positions count the residues as written; N and C are the ends. Square brackets hold non-standard residues; d marks the D form. Peptide text beside a SMILES is read from it. * marks the point of attachment. Piperazine(2S-CO,4-Me) = CN1CCN[C@H](C(=O)O)C1; Phe(3,5-F2) = N[C@@H](Cc1cc(F)cc(F)c1)C(=O)O; Phe(3-Me) = Cc1cccc(C[C@H](N)C(=O)O)c1; NH(4-Cl-2-F-phenyl) = Fc1cc(Cl)ccc1N*; Pro(4R-Me) = C[C@H]1CN[C@H](C(=O)O)C1; Propanoyl(3-NMe2) = CN(C)CCC(=O)*; Hyp = O=C(O)[C@@H]1C[C@@H](O)CN1; aThr = C[C@H](O)[C@H](N)C(=O)O; Pip = O=C(O)[C@@H]1CCCCN1; CO = O=C([*:1])[*:2]
One number for each entry, in h.

C[C@@H]1C[C@H]2C(=O)OC[C@H](NC(=O)[C@H](Cc3cc(F)cc(F)c3)NC(=O)Nc3ccc(Cl)cc3F)C(=O)N3CCC[C@H]3C(=O)N3CCN(C)C[C@H]3C(=O)N[C@@H](C)C(=O)N2C1 [Compound 34] ({NH(4-Cl-2-F-phenyl)-CO}-[Phe(3,5-F2)]SP[Piperazine(2S-CO,4-Me)]A[Pro(4R-Me)]; ester 2-C) :: 26.56

Give Human for each listed item.
1. Cc1cccc(C[C@H](NC(=O)Nc2ccc(Cl)cc2F)C(=O)N[C@@H]2C(=O)N3C[C@H](OC(=O)CCN(C)C)C[C@H]3C(=O)N3CCCC[C@H]3C(=O)N[C@@H](C)C(=O)N3C[C@H](C)C[C@H]3C(=O)O[C@H]2C)c1 [Compound 46] ({NH(4-Cl-2-F-phenyl)-CO}-[Phe(3-Me)][aThr][Hyp](Propanoyl(3-NMe2))[Pip]A[Pro(4R-Me)]; ester 2-C)
2. Cc1cccc(C[C@H](NC(=O)Nc2ccc(Cl)cc2F)C(=O)N[C@@H]2C(=O)N3CCC[C@H]3C(=O)N3CCN(C)C[C@H]3C(=O)N[C@@H](C)C(=O)N3C[C@H](C)C[C@H]3C(=O)O[C@H]2C)c1 [Compound 11] ({NH(4-Cl-2-F-phenyl)-CO}-[Phe(3-Me)][aThr]P[Piperazine(2S-CO,4-Me)]A[Pro(4R-Me)]; ester 2-C)

output:
1. 0.57
2. 44.21
